Molecular target: CK1ε (Homo sapiens, UniProt P49674)
Sequence (P49674 whole entry): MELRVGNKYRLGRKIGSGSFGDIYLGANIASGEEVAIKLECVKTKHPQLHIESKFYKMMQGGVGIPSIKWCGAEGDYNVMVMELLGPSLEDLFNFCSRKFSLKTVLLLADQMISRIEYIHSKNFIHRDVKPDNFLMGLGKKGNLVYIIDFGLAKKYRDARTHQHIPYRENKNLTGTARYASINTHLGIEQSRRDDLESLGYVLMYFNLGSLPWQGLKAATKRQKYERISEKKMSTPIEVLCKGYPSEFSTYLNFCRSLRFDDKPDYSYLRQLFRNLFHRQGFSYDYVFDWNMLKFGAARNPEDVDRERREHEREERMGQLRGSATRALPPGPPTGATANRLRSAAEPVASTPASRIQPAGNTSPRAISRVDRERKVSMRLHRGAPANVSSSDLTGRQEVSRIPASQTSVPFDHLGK
Test: CK1ε kinase assay (Caliper LabChip electrophoretic separation of fluoresceinated peptide substrate and product)
Type: biochemical
Details: 200 pM CK1ε, 50 μM ATP, 1.5 μM peptide, 22 hours at room temperature; read-out: CK1ε IC50 range
pIC50: −log10 of the molar value.
quantity measured: pIC50

Guide cases for pIC50, answers given:
molecule: CC(C)(C)NC(=O)N1CCn2nc(-c3cccc(C(N)=O)c3)c(C(N)=O)c2C1 [Compound 123]
pIC50: 5.70 to 7.00

molecule: CC1Cn2nc(-c3ccc(F)c(Cl)c3)c(C(N)=O)c2CN1C(=O)NC1CC(F)(F)C1 (single isomer, unassigned) [Compound 342]
pIC50: 7.00 to 8.00

molecule: CC1Cn2nc(-c3ccc(F)c(Cl)c3)c(C(N)=O)c2CN1C(=O)NC1(C)CC(F)(F)C1 (single isomer, unassigned) [Compound 345]
pIC50: 8.00 to 11.00

molecule: CC1(NC(=O)N2CCn3nc(-c4ccc(F)c(Cl)c4)c(C(N)=O)c3C2)CC(O)C1 (stereo not shown) [Compound 260]
pIC50: 8.00 to 11.00

molecule: CC(C)(C)NC(=O)N1CCn2nc(-c3cnc(N4CCOCC4)nc3)c(C(N)=O)c2C1 [Compound 147]
pIC50: 5.70 to 7.00

INPUT: Quick one: pIC50 of NC(=O)c1c(-c2ccc(F)c(Cl)c2)nn2c1CN(C(=O)N[C@@H]1CC[C@H]1COC(F)F)CC2 [Compound 241] ?
OUTPUT: 8.00 to 11.00

INPUT: Can you share its pIC50? I mean this molecule: CC(C)(C)NC(=O)N1CCn2nc(-c3ccccc3C(N)=O)c(C(N)=O)c2C1 [Compound 131]
OUTPUT: 5.70 to 7.00

INPUT: Which pIC50 value belongs to NC(=O)c1c(-c2ccc(F)c(Cl)c2)nn2c1CN(C(=O)NC1(c3ccc(F)cc3)CC(F)(F)C1)CC2 [Compound 308] ?
OUTPUT: 8.00 to 11.00

INPUT: Request the reported pIC50 associated with NC(=O)c1c(-c2ccc(Cl)c(Cl)c2)nn2c1CN(C(=O)N[C@@H]1CC[C@H]1COC(F)F)CC2 [Compound 243]
OUTPUT: 8.00 to 11.00

INPUT: GET /values?readout=pIC50&item= NC(=O)c1c(-c2cccc(F)c2)nn2c1CN(C(=O)Nc1cccc3ccccc13)CC2 [Compound 52]
OUTPUT: 7.00 to 8.00

---

Target: CK1δ (Homo sapiens, UniProt P48730)
Sequence (P48730 whole entry): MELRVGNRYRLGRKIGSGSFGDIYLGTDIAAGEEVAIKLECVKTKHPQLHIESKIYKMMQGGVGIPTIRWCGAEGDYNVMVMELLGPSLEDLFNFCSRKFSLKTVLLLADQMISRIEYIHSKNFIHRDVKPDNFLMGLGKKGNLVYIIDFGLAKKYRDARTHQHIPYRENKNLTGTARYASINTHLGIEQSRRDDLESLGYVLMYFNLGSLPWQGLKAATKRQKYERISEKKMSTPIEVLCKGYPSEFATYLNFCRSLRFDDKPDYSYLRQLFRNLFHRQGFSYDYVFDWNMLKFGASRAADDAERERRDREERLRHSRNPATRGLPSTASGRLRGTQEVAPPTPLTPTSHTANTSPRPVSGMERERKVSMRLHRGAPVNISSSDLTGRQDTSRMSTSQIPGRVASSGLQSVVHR
Experiment: CK1δ kinase assay (Caliper LabChip electrophoretic separation of fluoresceinated peptide substrate and product)
Assay type: biochemical
Conditions: 200 pM CK1δ, 50 μM ATP, 1.5 μM peptide, 22 hours at room temperature; read-out: CK1δ IC50 range
Procedure: CK1ε and CK1δ Kinase Assays The kinase assay was performed in V-bottom 384-well plates. […] The reaction was incubated at room temperature for 22 hours and terminated by adding 45 μl of 35 mM EDTA to each sample. The reaction mixture was analyzed on the Caliper LABCHIP®3000 (Caliper, Hopkinton, Mass.) by electrophoretic separation of the unphosphorylated substrate and phosphorylated product. […] Compounds were dissolved at 10 mM in dimethylsulfoxide (DMSO) and evaluated at eleven concentrations. […]
pIC50: −log10 of the molar value.
quantity measured: pIC50

compound: CC1CN(C(=O)NC(C)(C)C)Cc2c(C(N)=O)c(-c3cccc(F)c3)nn21 (single isomer, unassigned) [Compound A108]
system under test: CK1δ (Homo sapiens, UniProt P48730)
pIC50: 7.00 to 8.00
//
compound: CC1CC(NC(=O)N2CCn3nc(-c4ccc(F)c(Cl)c4)c(C(N)=O)c3C2)C1 (single isomer, unassigned) [Compound 247]
system under test: CK1δ (Homo sapiens, UniProt P48730)
pIC50: 8.00 to 11.00
//
compound: NC(=O)c1c(-c2cccc(Cl)c2)nn2c1CN(C(=O)NC13CCC(C(F)F)(CC1)CC3)CC2
system under test: CK1δ (Homo sapiens, UniProt P48730)
pIC50: 8.00 to 11.00
//
compound: CC(C)(C)NC(=O)N1CCn2nc(-c3cc(Cl)cc(C#N)c3)c(C(N)=O)c2C1
system under test: CK1δ (Homo sapiens, UniProt P48730)
pIC50: 7.00 to 8.00

INPUT: Given the entry NC(=O)c1c(-c2cccc(Cl)c2)nn2c1CN(C(=O)NC13C4C5C6C4C1C6C53)CC2 (stereo not drawn) , report its measured pIC50.
OUTPUT: 8.00 to 11.00

INPUT: // lookup pIC50 for CC(C)(C)NC(=O)N1CCn2nc(-c3cccc(Cl)c3Cl)c(C(N)=O)c2C1
OUTPUT: 7.00 to 8.00

INPUT: Look up pIC50 for this compound: NC(=O)c1c(-c2ccc(F)c(Cl)c2)nn2c1CN(C(=O)NC13CCC(c4ccccc4)(CC1)CC3)CC2
OUTPUT: 8.00 to 11.00

INPUT: Recorded pIC50 of CC(C)(C)NC(=O)N1CCn2nc(-c3cccc(S(N)(=O)=O)c3)c(C(N)=O)c2C1 , please.
OUTPUT: 5.70 to 7.00

INPUT: Entry under review: NC(=O)c1c(-c2ccc(F)c(Cl)c2)nn2c1CN(C(=O)NC13CCC(C(F)F)(CC1)CC3)CC2 . Reported pIC50?
OUTPUT: 8.00 to 11.00
